- System: HT29 (colon)
- measurement.protocol: SRB colorimetric cell growth and viability assay, HT29
- Assay type: cell-based
- experimental.context: Homo sapiens, HT-29, 48 hours of exposure, read-out: GI50, concentration at which the compound assayed inhibits 50% of the cell growth compared to non-treated cells
measured.endpoint: GI50 (nM)
# value in nM; strip the unit string

*Q* # GI50 lookup, item CO[C@H](C(=O)[C@@H](O)[C@@H](C)O)[C@@H]1Cc2cc3cc(O[C@H]4C[C@@H](O[C@H]5C[C@@H](O)[C@H](O)C(C)O5)[C@H](O)C(C)O4)c(C)c(O)c3c(O)c2C(=O)[C@H]1O[C@H]1C[C@@H](O[C@H]2C[C@@H](O[C@H]3C[C@@H](O)[C@H](O)C(C)O3)[C@@H](O)C(C)O2)[C@H](O)C(C)O1 (stereo partly shown)
*A* 270
